# Tested on: RAW-Dual (murine macrophage reporter line)
# Assay Protocol: IRF reporter (Lucia luciferase) activity fold change vs agonist alone; higher = enhanced IRF activity
# Assay Setup: modulator concentration 10 µM; agonist: 3'3'-cGAMP 10 ug/mL
Result Type: IRF reporter
Answers are plain numbers.

Examples with answers:
> print(dat)
                                   compound   result.type  value.observed
1  CCC(=O)Nc1ccc(S(=O)(=O)N2CCSC(c3ccccc3C)CC2)c(C)c1 (stereo not drawn)  IRF reporter           0.412
2  COc1c(-c2ccc3cc(NS(C)(=O)=O)ccc3c2)cc(-n2ccc(=O)[nH]c2=O)cc1C(C)(C)C  IRF reporter           0.774
3  O=C(Cc1ccccc1)NCC(O)Cn1ccccc1=O (stereo not drawn)  IRF reporter            1.04

Need IRF reporter for each of these compounds.
1. COc1ccccc1-n1ncc2c(C)nnc(SCC(=O)NCc3ccccc3Cl)c21
2. COC(=O)C(NC(=O)C(C)(C)C)C12CC3CC(CC(C3)C1)C2 (stereo not drawn)
3. Nc1ncnc2c1ncn2C1OC(COP(=O)(O)O)C(O)C1O (stereo not drawn)
4. COc1ccc(-n2ncc3c(Nc4cc(OC)c(OC)c(OC)c4)ncnc32)cc1
5. CC1(C)OC(=O)C=CC2(C)C1CC(O)C1(C)C2CCC2(C)C(c3ccoc3)OC(=O)C3OC321 (stereo not drawn)

[0.781, 1.06, 1.44, 0.821, 0.944]

Need IRF reporter for each of these compounds.
1. C=C1C(=O)OC2C1CCC(C)=CCCC1(C)OC21 (stereo not drawn)
2. CC1c2cccc(O)c2C(=O)C2=C(O)C3(O)C(=O)C(C(N)=O)=C(O)C(N(C)C)C3C(O)C21.Cl (stereo not drawn)
3. COc1ccc(CCNC(=O)NCc2nnc3n2CCC(C(F)(F)F)C3)cc1 (stereo not drawn)
4. COC(=O)C1C(c2ccccc2)C(C(=O)Oc2ccc(C(C)=O)cc2)C1c1ccccc1 (stereo not drawn)
5. CC(C)NCC(O)COc1cccc2[nH]ccc12 (stereo not drawn)

1: 0.0346; 2: 0.795; 3: 1.05; 4: 0.908; 5: 1.01

Need IRF reporter for each of these compounds.
1. S=c1n(CN2CCOCC2)nc(-c2ccccc2Br)n1-c1ccccc1
2. O=C(COc1ccc2ccccc2c1)Nc1cnoc1
3. O=C(NC(=S)NNc1ccccc1)c1cc2ccccc2oc1=O
4. COc1ccc(-c2oc3ccc(OC)cc3c2C(=O)Nc2ccccc2Cl)cc1
5. O=C(Cc1ccc(F)cc1)NCC1CCCN1c1ccccc1 (stereo not drawn)
6. CCN(CC)c1ccc(-c2noc(CN3CCSCC3)n2)cn1

1. 0.884
2. 0.92
3. 0.861
4. 0.756
5. 0.677
6. 0.983

Need IRF reporter for each of these compounds.
1. CCOC(=O)N1CCN(C(=O)CSc2nnc(-c3cccc(Cl)c3)o2)CC1
2. COc1ccc(-n2nc(C(N)=O)c3c2C(=O)N(c2ccc(N4CCCCC4=O)cc2)CC3)cc1
3. O=C(NCCN1CCN(c2ccc(Cl)cc2)CC1)c1ccno1
4. COc1ccccc1C(=O)Nc1cnc(N2CCN(c3ccccn3)CC2)nc1
5. Cn1cnc2c(F)c(Nc3ccc(Br)cc3Cl)c(C(=O)NOCCO)cc21
6. Cc1ccc(S(=O)(=O)Nc2ccccc2-c2nc3ccccc3o2)cc1
7. COc1cccc(O)c1O
8. CC1=NN(C(=O)OC(C)(C)C)C(O)(c2ccncc2)C1 (stereo not drawn)

1. 0.769
2. 0.994
3. 1.01
4. 0.913
5. 0.852
6. 0.323
7. 0.479
8. 0.979
